Assay: inhibitors of TNFa-induced NFkB p65 translocation, primary screen, imaging, HUVEC, MLSMR starter and 10KST1 sets (AID 438);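 further: compound added about 3h40 before a 20 min TNFalpha stimulation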
Conditions: HUVEC TNFa-induced p65 nuclear translocation; measured here: nuclei count (cytotoxicity indicator), at 2.08 µM
cell count for assorted molecules
Just the number, please, no unit attached.

Query string: Entry CN1CCN(c2nc3c(c(=O)n(C)c(=O)n3C)n2Cc2cccc3ccccc23)CC1 : reported cell count = ?
Result string: 371

Query string: Entry COc1ccccc1N1CCN(C(=O)c2c(C)cc(=O)oc2C)CC1 : reported cell count = ?
Result string: 275

Query string: Entry Cc1nnc(NCc2n[nH]c(=O)c3ccccc23)c2ccccc12 : reported cell count = ?
Result string: 459

Query string: Entry CC1(C)CC(=O)C2=C(C1)Oc1nc3ccccc3cc1C2C(C#N)C#N (stereo not drawn) : reported cell count = ?
Result string: 373

---

Assay: inhibitors of poly I:C-induced TLR3 signaling, primary screen, cell-based, poly I:C stimulus, luciferase, 10K MLSCN set (AID 602277)
Conditions: HEK293-TLR3 RL24 IRF3 luciferase reporter, at 10 µM, stronger effect = higher value
quantity.measured: inhibition (%)
Express it in %; write the number only.

Worked set:
INSERT INTO measurements (compound, quantitative_result) VALUES
  ('CC(C)NCC(O)COc1cccc2[nH]ccc12 (stereo unspecified)', 29.8),
  ('O=c1oc2cc(O)ccc2c2oc3cc(O)ccc3c12', 41.2),
  ('CC(=Nc1cccc(O)c1)c1sc2ccccc2c1O', 76.3),
  ('C(=C\c1ccccc1)/CN1CCN(C(c2ccccc2)c2ccccc2)CC1', 26.9),
  ('C[C@H]1C[C@@H]2[C@H]([C@@H](O)C[C@@]3(C)[C@H]2CC[C@]3(O)C(=O)CO)[C@@]2(C)C=CC(=O)C=C12', 36.5),
  ('COc1ccccc1OCC(O)COC(N)=O (stereo unspecified)', 35.1);

Query string: Entry CCCCOc1ccc(C(=O)CCN2CCCCC2)cc1 : reported inhibition = ?
Result string: 21.9

Query string: Entry COc1cc(/C=N/n2c(C)nnc2C)cc(OC)c1OC : reported inhibition = ?
Result string: 13.7

Query string: Entry Cc1cc(C)n(CC2CC(=O)N(c3ccc(Cl)c(Cl)c3)C2=O)n1 (stereo unspecified) : reported inhibition = ?
Result string: 6.73

Query string: Entry CCc1cc(=O)oc2c(CN3CCN(C)CC3)c(O)c(Cl)cc12 : reported inhibition = ?
Result string: 22.6

Query string: Entry CC(C)OC(=O)C(CC(=O)O)NCc1ccccc1 (stereo unspecified) : reported inhibition = ?
Result string: 20.3

---

cell count for assorted compounds
Assay: inhibitors of TNFa-induced NFkB p65 translocation, primary screen, imaging, HUVEC, MLSMR starter and 10KST1 sets (AID 438);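 further: compound added about 3h40 before a 20 min TNFalpha stimulation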
Conditions: HUVEC TNFa-induced p65 nuclear translocation; measured here: nuclei count (cytotoxicity indicator), at 2.08 µM
Just the number, please, no unit attached.

Worked set:
INSERT INTO assay_data (compound, quantity_measured, quantitative_result) VALUES
  ('Cn1c(-n2c(-c3ccco3)nc3ccccc3c2=O)nc2ccccc21', 'cell count', 589),
  ('CN1CCCN=C1COC(=O)C(O)(c1ccccc1)C1CCCCC1 (stereo not drawn)', 'cell count', 703),
  ('COc1cc(/C=N/n2c(C)nnc2C)cc(OC)c1OC', 'cell count', 454),
  ('O=C1CCC(=O)N1CN(C(=O)c1ccco1)c1ccc(Cl)c(Cl)c1', 'cell count', 481),
  ('O=C1CCC(=O)N1c1nc2nc(-c3ccccc3)cc(-c3ccccc3)n2n1', 'cell count', 360),
  ('CCOc1ccc(C2C(C(=O)c3ccc(C)o3)=C(O)C(=O)N2CCN2CCOCC2)cc1OC (stereo not drawn)', 'cell count', 248);

Query string: Entry COc1ccc(C2CC(C(F)(F)F)n3ncc(C(=O)NCC4CCCO4)c3N2)cc1OC (stereo not drawn) : reported cell count = ?
Result string: 536

---

Molecular target: Muscarinic acetylcholine receptor M4 (Homo sapiens)
Test: compounds altering M4/GIRK thallium flux, either direction, primary screen, M4 allosteric agonist project, cell-based, HEK293 M4/GIRK, BTC-AM (AID 625);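 further: thallium influx through GIRK channels coupled to M4 in HEK293 cells with BTC-AM dye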
Conditions: at 10 µM, actives lie on both sides
Classify as follows. Reported fluorescence slope greater than or equal to 0.005: Condition met. Reported fluorescence slope below: Condition not met.

Use the examples below as a reference point.
INSERT INTO measurements (molecule, discrete_label) VALUES
  ('CCN1CCc2c(C#N)c(N3CCCCC3)nc(NCc3ccccc3)c2C1', 'Condition not met'),
  ('CCOC(=O)C1(c2nc(N)cs2)COC(=O)C1 (stereo not given)', 'Condition met');

Turning to the following molecule.
Query string: Does fluorescence slope meet or surpass 0.005 for CN(C)CC(O)COc1ccc(-c2ccc(C#N)cc2)cc1 (stereo not given) ?
Result string: Condition not met

---

Test: inhibitors of E-selectin induction by TNFa, primary screen, imaging, HUVEC, immunofluorescence, MLSMR starter and 10KST1 sets (AID 487);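 further: 100% = median nuclei count of all wells on the same plate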
Settings: HUVEC TNFalpha-induced E-selectin immunofluorescence imaging, at 2 µM; measured here: cell number, toxicity
nuclei count for assorted compounds

Worked set:
INSERT INTO measurements (compound, quantity_measured, result) VALUES
  ('Cc1c(/C(O)=C2\C(=O)C(=O)N(CCCN(C)C)C2c2ccccc2)cnn1-c1ccccc1 (stereo not drawn)', 'nuclei count', '139%'),
  ('CCOCCSc1nc2c(c(=O)[nH]c(=O)n2C)n1CCCc1ccccc1', 'nuclei count', '133%'),
  ('CCCc1cc(=O)oc2c(CN3CCCC3)c(O)c(Cl)cc12', 'nuclei count', '144%'),
  ('CCCCOc1ccccc1C(=O)NCCCC(=O)O', 'nuclei count', '134%'),
  ('Nc1nnc(CSc2ccc(Cl)cc2)s1', 'nuclei count', '171%');

Query string: Entry CN(C)C=C1C(=O)c2ccccc2C1=O : reported nuclei count = ?
Result string: 132%

Query string: Entry CCN(CC)CC#CCOC(=O)C(O)(c1ccccc1)C1CCCCC1 (stereo not drawn) : reported nuclei count = ?
Result string: 112%

Query string: Entry CC(=O)O[C@]1(C(C)=O)CC[C@H]2[C@@H]3C=C(C)C4=CC(=O)CC[C@]4(C)[C@H]3CC[C@@]21C : reported nuclei count = ?
Result string: 125%

---

z-score for assorted molecules
Assay: DUSP6 inhibitors restoring Erk phosphorylation by chemical complementation, primary imaging in DUSP6-transfected HeLa (AID 609)
Settings: HeLa MKP-3 transfected, phospho-Erk imaging KS statistic; measured here: nuclear c-Myc green intensity z-score; at 10 µM; cells stimulated with TPA for 15 min
Just the number, please, no unit attached.

Worked set:
INSERT INTO measurements (molecule, quantitative_result) VALUES
  ('O=C(O)c1cnn2c(C(F)(F)F)cc(-c3ccco3)nc12', -0.0109),
  ('COC(=O)c1ccc(=O)n(Cc2ccco2)c1', 1.62),
  ('Cc1nn(C)cc1C1C2=C(CC(C)(C)CC2=O)OC2=C1C(=O)CC(C)(C)C2', 0.307);

Proceeding to the next molecule to report its z-score.
Query string: Entry CC(NCCc1ccc(O)cc1)C(O)c1ccc(O)cc1 (stereo not given) : reported z-score = ?
Result string: 0.516

---

Test: inhibitors of E-selectin induction by TNFa, primary screen, imaging, HUVEC, immunofluorescence, MLSMR starter and 10KST1 sets (AID 487);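 further: 100% = median nuclei count of all wells on the same plate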
Conditions: HUVEC TNFalpha-induced E-selectin immunofluorescence imaging, at 2 µM; measured here: cell number, toxicity
nuclei count for assorted compounds
Express it in %; write the number only.

INSERT INTO results (compound, quantitative_result) VALUES
  ('COc1ccccc1C1/C(=C(/O)c2cnn(-c3ccccc3)c2C)C(=O)C(=O)N1CCN(C)C (stereo unspecified)', 132),
  ('CC1(C)Cc2c(c(-c3ccccc3)nc3[nH][nH]c(=O)c23)CO1', 162),
  ('Cc1nnc(SCCC#N)n(CCC#N)c1=O', 164),
  ('COc1ccc(Cn2c(CCCO)nc3ccccc32)cc1OC', 122);

Query string: Entry CC(C)Oc1ccc(C(=O)CCN2CCCCC2)cc1 : reported nuclei count = ?
Result string: 163

Query string: Entry O=C(O)CN(c1ccccc1)C1SC(=O)NC1=O (stereo unspecified) : reported nuclei count = ?
Result string: 140

---

z-score for assorted compounds
Experiment: DUSP6 inhibitors restoring Erk phosphorylation by chemical complementation, primary imaging in DUSP6-transfected HeLa (AID 609)
Conditions: HeLa MKP-3 transfected, phospho-Erk imaging KS statistic; measured here: nuclear c-Myc green intensity z-score; at 10 µM; cells stimulated with TPA for 15 min

Query string: Entry Cc1ccsc1C1NC(=O)c2c(sc3c2CCCC3)N1 (centres undefined) : reported z-score = ?
Result string: -0.46

Query string: Entry C=C(C)C1Cc2c(C)nn(-c3nc(C)cc(C)n3)c2C1 (centres undefined) : reported z-score = ?
Result string: 1.2

Query string: Entry COc1ccc(C(=O)c2sc(NC(C)C)nc2N)cc1OC : reported z-score = ?
Result string: 0.429

Query string: Entry CCC1SC(N)=NC1=O (centres undefined) : reported z-score = ?
Result string: 1.35

Query string: Entry COc1cc(=O)n2c(-c3ccccc3)csc2n1 : reported z-score = ?
Result string: 1.4

Query string: Entry CN(C)CCCN1c2ccccc2CCc2ccc(Cl)cc21 : reported z-score = ?
Result string: 1.08

Query string: Entry N#C/C(C(=O)NCc1ccco1)=C1/SC(Cc2ccc(F)cc2)C(=O)N1c1ccccc1 (centres undefined) : reported z-score = ?
Result string: 0.139

Query string: Entry COc1cc([C@@H]2[C@H]3CN(C)CC=C3C(C#N)=C(N)C2(C#N)C#N)cc2c1OCO2 : reported z-score = ?
Result string: -0.834
